Here we list compounds with their recorded IC50 when tested on Dihydroorotate dehydrogenase (quinone), mitochondrial (Homo sapiens).
Sequence (Q02127 whole entry): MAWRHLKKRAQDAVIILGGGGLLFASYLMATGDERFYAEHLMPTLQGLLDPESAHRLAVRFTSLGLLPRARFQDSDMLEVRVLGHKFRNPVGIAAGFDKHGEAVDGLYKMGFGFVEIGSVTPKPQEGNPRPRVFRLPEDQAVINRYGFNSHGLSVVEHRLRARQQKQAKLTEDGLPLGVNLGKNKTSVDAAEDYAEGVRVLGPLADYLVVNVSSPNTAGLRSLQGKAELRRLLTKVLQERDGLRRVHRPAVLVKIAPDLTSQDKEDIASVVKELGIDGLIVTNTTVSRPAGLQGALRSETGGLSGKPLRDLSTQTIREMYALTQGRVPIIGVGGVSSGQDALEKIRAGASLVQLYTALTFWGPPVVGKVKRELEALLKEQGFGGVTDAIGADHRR
Measurement name: IC50 (nM)

| Smiles code | Reported |
| --- | --- |
| COc1cccc(C(=O)Nc2nc3ccccc3s2)c1 | 6830 |
| c1ccc2c(c1)Nc1nc3ccccc3nc1O2 | 18300 |
| O=C(Nc1nc2ccccc2s1)c1ccc(Cl)cc1Cl | 1830 |
| CC1=NN(c2ccccc2)C(=O)/C1=C/c1ccc(-c2cccc(C(=O)O)c2)o1 | 2740 |
| Oc1ccc(/C=N/c2cccc3ccccc23)c(O)c1 | 780 |

I: CC(=O)c1sc(Nc2ccc(C)c(Cl)c2)nc1C
II: O=Cc1ccccc1/C=N/Nc1nc(-c2ccccc2)cs1
Of I and II , whose reported IC50 is the larger number? Indicate your choice by writing its label. I
